Data origin: ChEMBL document CHEMBL5058577

So I've got a bunch of molecules here, and I need their Population Membrane Permeable-Phenotype (%) values.
Tested on: HEK-293T
Experiment: Multiplex assay against HEK293T
Format: toxicity, cell-based
Details: human, 24 h, 1 µM, compound concentration 1 uM, replicate 1
Numbers only, in %.

Molecule	Data Value
Cc1cc(-c2ccc3c(c2)CC[C@H]3N2CC3(CCN(C(=O)Cc4cn5cc(C)sc5n4)CC3)C2)ncn1	0
Cc1c(Cc2ccc3ccccc3n2)c2cc(F)ccc2n1CC(=O)O	1
Cl.Cl.OCCOCCN1CCN(C(c2ccccc2)c2ccc(Cl)cc2)CC1 (stereo not given) [HYDROXYZINE HYDROCHLORIDE]	0
CC(C)(O)C(=O)N1CCN(c2ccc(C(F)(F)F)c(C3=C(c4c[nH]c5ccccc45)C(=O)NC3=O)c2)CC1	0

With those in mind, consider the next molecule.
Population Membrane Permeable-Phenotype (%) reading for `O=c1nc2[nH]c3ccccc3nc-2c(=O)[nH]1` : 0

---

Test system: HEK-293T
Test: Multiplex assay against HEK293T
Assay type: toxicity, cell-based
Details: human, 48 h, 10 µM, compound concentration 10 uM, replicate 1
Recorded Endpoint: Population Mitotic Cells (%)
Give bare numbers, in %.

Examples with answers:
Compound	Population Mitotic Cells (%)
Cc1nn(C)c2nc(NNC(=O)Nc3cc(Cl)nc(Cl)c3)cc(C(C)C)c12	37
COc1cc(C(=O)N2CC[C@@H](O)[C@@H](N)C2)cc2nc(-c3cc4ccccc4n3CC3CC3)n(C)c12.Cl	23
O=C(Nc1cc(-c2ccccc2)nn1-c1ccccc1F)c1ccc([N+](=O)[O-])cc1	77
CN(C)C/C=C/C(=O)Nc1ccc(C(=O)N2CCCC(Nc3ncc(Cl)c(-c4c[nH]c5ccccc45)n3)C2)cc1 (configuration not stated)	44
CN1CCN2c3ccccc3Cc3ccccc3C2C1.Cl (configuration not stated) [MIANSERIN HYDROCHLORIDE]	75

# per-item lookup of Population Mitotic Cells (%); items listed below
1. COCCCN1CCC(NC(=O)c2cc(Cl)c(N)c3c2OCC3)CC1 [PRUCALOPRIDE]
2. Cl.Cl.OCCOCCN1CCN(C(c2ccccc2)c2ccc(Cl)cc2)CC1 (configuration not stated) [HYDROXYZINE HYDROCHLORIDE]
3. Cc1cc(=O)n(C)c2cc(N3C(=O)CC[C@H](NS(=O)(=O)CC(C)C)[C@H]3c3ccc(Cl)cc3)ccc12
4. COc1ccc2c(c1OCc1ccccc1)C[C@@H](C(=O)O)N(C(=O)C(c1ccccc1)c1ccccc1)C2
5. Cn1cc(C(=O)OCC2CCN(CCNS(C)(=O)=O)CC2)c2ccccc21
6. COc1cc(Nc2ncc3c(n2)-c2ccc(Cl)cc2C(c2c(F)cccc2OC)=NC3)ccc1C(=O)O

[79, 61, 43, 67, 61, 52]

# per-item lookup of Population Mitotic Cells (%); items listed below
1. Cc1cc(-c2ccc3c(c2)CC[C@H]3N2CC3(CCN(C(=O)Cc4cn5cc(C)sc5n4)CC3)C2)ncn1
2. Cc1cc(NC(=O)NCCN2CCC(O)(Cc3ccccc3)CC2)c2ccccc2n1
3. CC(C)(O)C(=O)N1CCN(c2ccc(C(F)(F)F)c(C3=C(c4c[nH]c5ccccc45)C(=O)NC3=O)c2)CC1
4. Cc1ccc(OCC(O)C(C)NC(C)C)c2c1CCC2.Cl (configuration not stated)
5. C[C@@H]1CC(=O)Nc2cccc(-c3ccc4c(c3)c(-c3cnn(C)c3)nn4C)c2N1

1: 76; 2: 70; 3: 45; 4: 59; 5: 56

# per-item lookup of Population Mitotic Cells (%); items listed below
1. CC(F)(F)CN1CCOc2c(nn(-c3ccccc3Cl)c2-c2ccc(Cl)cc2)C1=O
2. CN(C)C(=O)Cn1cc(-c2ccc(-c3nnc4ccccn34)cc2)cn1
3. CCCCC[C@H](O)/C=C/[C@H]1[C@H](O)CC(=O)[C@@H]1CCCCCCC(=O)O
4. COc1cc(OC2CCN(C(C)=O)CC2)ccc1C(=O)N1CCC(N2C(=O)OCc3ccccc32)CC1
5. COCCn1c(C)c(C)s/c1=N\C(=O)C1C(C)(C)C1(C)C
6. Cc1cc(O)c(-c2ccc([C@@H](C)CN(C)C)cc2)c2c1[nH]c(=O)c1sccc12

1. 44
2. 69
3. 75
4. 63
5. 40
6. 13

# per-item lookup of Population Mitotic Cells (%); items listed below
1. N[C@](CC1c2ccccc2Oc2ccccc21)(C(=O)O)[C@H]1C[C@@H]1C(=O)O
2. COc1cc2nc(N3CCN(C(=O)COc4c(OC)cccc4C(C)C)CC3)nc(N)c2cc1OC.Cl.Cl

1. 71
2. 68

# per-item lookup of Population Mitotic Cells (%); items listed below
1. CC(C)(C)c1ccc(CSc2cnn(C(C)(C)C)c(=O)c2Cl)cc1
2. Nc1nc(CC(=O)Nc2ccc(CCNC[C@H](O)c3ccccc3)cc2)cs1
3. CN1CCN(c2ccc(Nc3c4ccccc4nc4ccccc34)cc2)CC1.Cl.Cl.O

1: 51; 2: 73; 3: 0
